molecular target: CYP 2D6 (Homo sapiens)
Sequence (P10635 whole entry): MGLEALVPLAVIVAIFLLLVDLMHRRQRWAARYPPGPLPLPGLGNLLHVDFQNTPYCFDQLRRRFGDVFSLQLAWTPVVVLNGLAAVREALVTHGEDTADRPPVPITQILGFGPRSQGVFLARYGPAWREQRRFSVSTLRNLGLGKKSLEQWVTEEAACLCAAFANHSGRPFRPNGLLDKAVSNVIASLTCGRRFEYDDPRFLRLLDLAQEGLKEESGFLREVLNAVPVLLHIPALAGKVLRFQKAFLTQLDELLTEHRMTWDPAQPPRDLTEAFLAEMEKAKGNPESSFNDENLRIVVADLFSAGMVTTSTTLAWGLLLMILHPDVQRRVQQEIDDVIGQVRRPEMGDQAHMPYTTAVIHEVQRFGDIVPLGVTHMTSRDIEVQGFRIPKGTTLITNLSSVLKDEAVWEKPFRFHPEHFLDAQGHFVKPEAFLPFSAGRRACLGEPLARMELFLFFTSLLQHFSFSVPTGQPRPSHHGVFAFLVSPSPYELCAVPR

# structure-smiles-string, IC50
data = [
    ("N=C(N)NCCC(=O)O", "> 100 µM"),
]

* * *

Biological target: CYP 2C8 (Homo sapiens, UniProt P10632)
Sequence (P10632 1-490): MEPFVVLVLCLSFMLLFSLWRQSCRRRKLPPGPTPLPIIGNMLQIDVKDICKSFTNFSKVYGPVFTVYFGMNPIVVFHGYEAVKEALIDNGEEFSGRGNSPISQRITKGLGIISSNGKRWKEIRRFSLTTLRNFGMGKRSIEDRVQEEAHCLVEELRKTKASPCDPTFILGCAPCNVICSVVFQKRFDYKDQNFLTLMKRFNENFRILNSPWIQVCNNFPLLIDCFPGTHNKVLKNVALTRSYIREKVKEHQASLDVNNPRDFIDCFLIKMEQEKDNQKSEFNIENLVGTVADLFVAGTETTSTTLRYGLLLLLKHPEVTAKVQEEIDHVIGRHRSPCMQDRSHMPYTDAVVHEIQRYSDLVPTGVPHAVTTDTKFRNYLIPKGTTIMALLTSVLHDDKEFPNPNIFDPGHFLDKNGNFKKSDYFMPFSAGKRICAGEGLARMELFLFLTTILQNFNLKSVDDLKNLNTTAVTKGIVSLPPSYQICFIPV
pIC50: −log10 of the molar value.

# compound, target-or-test-system, pIC50
records = [
    ("N=C(N)NCCC(=O)O [RGX-202, β-Guanidinoproprionic acid]", "CYP 2C8 (Homo sapiens, UniProt P10632)", "< 4.00"),
]

* * *

molecular target: CYP 2A6 (Homo sapiens)
Sequence (P11509 whole entry): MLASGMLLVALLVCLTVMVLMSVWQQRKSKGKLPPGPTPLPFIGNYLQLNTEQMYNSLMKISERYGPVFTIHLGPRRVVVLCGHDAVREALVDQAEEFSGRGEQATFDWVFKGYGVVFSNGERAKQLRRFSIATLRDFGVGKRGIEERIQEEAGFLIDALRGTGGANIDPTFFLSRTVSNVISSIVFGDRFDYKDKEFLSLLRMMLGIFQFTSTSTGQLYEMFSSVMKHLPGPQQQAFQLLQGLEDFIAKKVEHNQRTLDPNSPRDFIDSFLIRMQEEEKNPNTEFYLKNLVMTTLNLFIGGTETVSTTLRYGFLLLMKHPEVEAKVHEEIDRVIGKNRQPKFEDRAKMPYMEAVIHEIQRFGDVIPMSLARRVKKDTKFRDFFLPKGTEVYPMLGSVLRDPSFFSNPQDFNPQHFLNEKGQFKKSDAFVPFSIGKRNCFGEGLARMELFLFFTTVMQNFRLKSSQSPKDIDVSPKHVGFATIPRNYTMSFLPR
value-type: IC50

# structure-smiles-string, value-type, result
rows = [
    ("N=C(N)NCCC(=O)O", "IC50", "> 100 µM"),
]

* * *

test system: CYP3A4/5; test: in vitro; conditions: human
value-type: IC50

# structure-smiles-string, value-type, result
measured = [
    ("N=C(N)NCCC(=O)O", "IC50", "> 100 µM"),
]
